Item-by-item account of pIC50
target: GR complex; experiment: [35S]TBPS binding assay (inhibition of [35S]TBPS binding, cerebral cortex P2 homogenate); parameters: species or system rat; conditions: 2 nM [35S]TBPS, rat cerebral cortex P2 homogenate
pIC50: −log10 of the molar value.
Assay Metric: pIC50

Compound	Assay Metric	Numeric Readout
CC(=O)[C@H]1CC[C@H]2[C@@H]3CC[C@@H]4C[C@@](O)(C#CCCC#N)CC[C@]4(C)[C@H]3CC[C@]12C	pIC50	6.88
CC(=O)C#C[C@@]1(O)CC[C@@]2(C)[C@H](CC[C@@H]3[C@@H]2CC[C@]2(C)[C@@H](C(C)=O)CC[C@@H]32)C1	pIC50	5.57
CC(=O)[C@H]1CC[C@H]2[C@@H]3CC[C@@H]4C[C@@](O)(C#Cc5ccc([N+](=O)[O-])cc5)CC[C@]4(C)[C@H]3CC[C@]12C	pIC50	7.34
CC(=O)[C@H]1CC[C@H]2[C@@H]3CC[C@@H]4C[C@@](O)(c5ccccc5)CC[C@]4(C)[C@H]3CC[C@]12C [3α-Hydroxy-3β-phenyl-5β-pregnan-20-one, 3α-hydroxy-3β-phenyl-5β-pregnan-20-one]	pIC50	6.42
C#C[C@@]1(O)CC[C@@]2(C)[C@H](CC[C@@H]3[C@@H]2CC[C@]2(C)[C@@H](C(=O)Cn4cccn4)CC[C@@H]32)C1	pIC50	6.97
C[C@]12CC[C@](O)(C#CCCO)C[C@H]1CC[C@@H]1[C@@H]2CC[C@]2(C)[C@@H](C(=O)Cn3ccnc3)CC[C@@H]12	pIC50	7.27
CC(=O)[C@H]1CC[C@H]2[C@@H]3CC[C@@H]4C[C@@](O)(C#Cc5ccccn5)CC[C@]4(C)[C@H]3CC[C@]12C	pIC50	6.97
C[C@]12CC[C@@H](O)C[C@H]1CC[C@@H]1[C@@H]2CC[C@]2(C)[C@@H](C(=O)CSS(=O)(=O)[O-])CC[C@@H]12.[Na+]	pIC50	6.57
C[C@@]1(O)CC[C@@]2(C)[C@@H](CC[C@@H]3[C@@H]2CC[C@]2(C)[C@@H](C(=O)CSS(=O)(=O)[O-])CC[C@@H]32)C1.[Na+]	pIC50	6.82
CC(=O)c1ccc(C#C[C@@]2(O)CC[C@@]3(C)[C@H](CC[C@@H]4[C@@H]3CC[C@]3(C)[C@@H](C(C)=O)CC[C@@H]43)C2)s1	pIC50	7.28
CC(=O)[C@H]1CC[C@H]2[C@@H]3CC[C@@H]4C[C@@](O)(C#Cc5ccc(C)cc5)CC[C@]4(C)[C@H]3CC[C@]12C	pIC50	7.06
C[C@]12CC[C@@H](O)C[C@@H]1CC[C@@H]1[C@@H]2CC[C@]2(C)[C@@H](C(=O)Cn3ccc(=O)[nH]c3=O)CC[C@@H]12	pIC50	6.36
CC(=O)OCCCCC#C[C@@]1(O)CC[C@@]2(C)[C@H](CC[C@@H]3[C@@H]2CC[C@]2(C)[C@@H](C(C)=O)CC[C@@H]32)C1	pIC50	6.51
